- TEST_METHOD_NOTES: gradient 5% acetonitrile 3 min, to 50% in 2 min, to 85% in 15 min, held 3 min, 100 µL/min
- STATED_CONDITIONS: column: Zorbax Extend-C18 2.1 x 50 mm; eluents: water / acetonitrile, 0.1% formic acid
Measured RP-LC retention time, listed per entry.

{"COMPOUND": "O=C(CN1CCCc2nc(C3CC3)ncc2C1=O)NCCCN1CCOCC1", "RP-LC retention time": "563 s"}
{"COMPOUND": "O=C(Cn1nc(C(=O)N2CCOCC2)c2ccccc21)N1CCN(c2ccccn2)CC1", "RP-LC retention time": "594 s"}
{"COMPOUND": "O=C(c1ccoc1)N1CCN(C(=O)c2nnn3c2COC(c2ccc(Cl)cc2)C3)CC1 (stereo not given)", "RP-LC retention time": "838 s"}
{"COMPOUND": "O=C(NCc1ccccc1F)c1ccc2c(c1)CN(Cc1cccc(F)c1)CCO2", "RP-LC retention time": "675 s"}
{"COMPOUND": "CCN(CC)c1nc(C(=O)NCc2ccncc2)nc2nc(C)cc(C)c12", "RP-LC retention time": "511 s"}
{"COMPOUND": "Cc1nnc2cc(N3CCN(S(=O)(=O)c4cccs4)CC3)cnn12", "RP-LC retention time": "636 s"}
{"COMPOUND": "[C-]#[N+]/C(C(=O)Nc1ccc(C(F)(F)F)cc1)=C(\\C)O", "RP-LC retention time": "846 s"}
{"COMPOUND": "Cc1nc(C(=O)Nc2ccc(N3CCOCC3)cc2)c(C)n1C1CCN(C)CC1", "RP-LC retention time": "555 s"}
{"COMPOUND": "COc1ccc(OC)c(CNC(=O)C2CCN(c3cnc4nccnc4c3)CC2)c1", "RP-LC retention time": "680 s"}
{"COMPOUND": "CC(C)(C)c1csc(-c2csc(S(=O)(=O)Nc3ccc(Br)cc3F)c2)n1", "RP-LC retention time": "1330 s"}
{"COMPOUND": "COC(=O)C1CN(c2ccc(OC)cc2)N=C1C(C)=O (stereo not given)", "RP-LC retention time": "850 s"}
{"COMPOUND": "C=CCn1c(-c2ccc([N+](=O)[O-])cc2)nc2nc3ccccc3nc21", "RP-LC retention time": "825 s"}
{"COMPOUND": "Cc1cc(OC(C)C(=O)N(Cc2ccco2)C2CCS(=O)(=O)C2)cc(C)c1Cl (stereo not given)", "RP-LC retention time": "1010 s"}
{"COMPOUND": "COc1ccc(-c2nc3c4cnn(-c5ccccc5Cl)c4ncn3n2)cc1OC", "RP-LC retention time": "845 s"}
{"COMPOUND": "Cc1[nH]c2ccccc2c1C(Nc1nc2ccccc2s1)c1ccccn1 (stereo not given)", "RP-LC retention time": "703 s"}
{"COMPOUND": "COc1ccc(CNS(=O)(=O)c2cc3c(s2)CCN(C(=O)C2CC2)C3)cc1", "RP-LC retention time": "812 s"}
{"COMPOUND": "COCCC1CCN(C(=O)CN(C)C(=O)c2cnccn2)CC1", "RP-LC retention time": "580 s"}
{"COMPOUND": "O=C(CN1CCN(C(=O)Nc2ccc(Br)cc2)CC1=O)NCc1ccccn1", "RP-LC retention time": "615 s"}
{"COMPOUND": "COc1ccc(C2CC(=O)N(CC(=O)NCC3CCCO3)c3ccccc3S2)cc1 (stereo not given)", "RP-LC retention time": "826 s"}
{"COMPOUND": "Cn1c(=O)c(C(=O)NC2CC2)nc2cccnc21", "RP-LC retention time": "613 s"}
